biological target: FmlHLD (Escherichia coli); construct: 6xHis (C); made in house; host or cells: E. coli C600, periplasm, pTRC99a; experiment: biochemical; type: binding, E. coli; conditions: read-out: % Inhibition at [μM] [10], compound at 10 μM; inhibition of FmlHLD binding to ds-BSM
Param threshold (20%) applies to inhibition at 10 µM; output true when value >= threshold, false when value < threshold.

Examples with answers:
- compound: "COC(=O)c1cccc(-c2ccccc2O[C@@H]2O[C@H](CO)[C@H](O)[C@H](O)[C@H]2O)c1 [Compound 116f]"
  class_label: "true"
- compound: "N#Cc1ccc(O[C@@H]2O[C@H](CO)[C@H](O)[C@H](O)[C@H]2O)cc1 [Compound 152b]"
  class_label: "false"
- compound: "COc1cc(OC)cc(O[C@@H]2O[C@H](CO)[C@H](O)[C@H](O)[C@H]2O)c1 [Compound 151d]"
  class_label: "false"
- compound: "COc1ccccc1O[C@@H]1O[C@H](CO)[C@H](O)[C@H](O)[C@H]1O [Compound 149e]"
  class_label: "true"

Now take the following compound into account.
Identify whether the reported inhibition at 10 µM of the following compound is 20% or greater: N#Cc1ccccc1O[C@@H]1O[C@H](CO)[C@H](O)[C@H](O)[C@H]1O [Compound 137b]
true

----------
target: FmlHLD (Escherichia coli, UniProt P77588); construct: 6xHis (C); made in house; host or cells: E. coli C600, periplasm, pTRC99a; assay: biochemical; assay type: binding, E. coli; conditions: galactoside at 100 μM; mean with standard error of the mean; 100 µM
Sequence (P77588 25-182): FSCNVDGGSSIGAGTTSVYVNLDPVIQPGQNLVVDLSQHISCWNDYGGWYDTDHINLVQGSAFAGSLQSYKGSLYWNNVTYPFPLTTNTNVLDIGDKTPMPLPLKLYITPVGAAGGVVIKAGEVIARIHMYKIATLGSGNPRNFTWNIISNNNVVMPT
Measured PI100 (percent inhibition), listed per entry for reference.
The response must be a number in % with no trailing unit.

- compound: "OC[C@H]1O[C@@H](Oc2ccccc2Cl)[C@H](O)[C@@H](O)[C@H]1O [Compound 6β, 2-chlorophenyl β-D-galactopyranoside]"
  unit_name: "%"
  PI100 (percent inhibition): 90.5
- compound: "OC[C@H]1O[C@@H](Oc2ccccc2)[C@H](O)[C@@H](O)[C@H]1O [Compound 1β, phenyl β-galactoside]"
  unit_name: "%"
  PI100 (percent inhibition): 76.9
- compound: "Cc1c(C)c2ccc(O[C@@H]3O[C@H](CO)[C@H](O)[C@H](O)[C@H]3O)cc2oc1=O"
  unit_name: "%"
  PI100 (percent inhibition): 89.2
- compound: "OC[C@H]1O[C@@H](Oc2c[nH]c3cc(Cl)ccc23)[C@H](O)[C@@H](O)[C@H]1O"
  unit_name: "%"
  PI100 (percent inhibition): 41.2
- compound: "Cc1ccccc1O[C@@H]1O[C@H](CO)[C@H](O)[C@H](O)[C@H]1O [Compound 2β, 2-Methylphenyl α/β-D-Galactopyranoside]"
  unit_name: "%"
  PI100 (percent inhibition): 87.3

Returns the measured PI100 (percent inhibition) for the input compound. Input: "Cc1cc(=O)oc2cc(O[C@@H]3O[C@H](CO)[C@H](O)[C@H](O)[C@H]3O)ccc12"
85.3

Returns the measured PI100 (percent inhibition) for the input compound. Input: OC[C@H]1O[C@@H](Oc2cccc3ccncc23)[C@H](O)[C@@H](O)[C@H]1O [Compound 21β, 8-isoquinolinyl β-D-galactopyranoside]
15.2

----------
experiment: Rat pharmacokinetics, plasma and urine, IV and PO; format: in vivo; conditions: in vivo; rat; 10 mg/kg PO vs 3 mg/kg IV; read-out: oral bioavailability (F)
readout: bioavailability

Returns the measured bioavailability for the input compound. Input: "CC(=O)N[C@H]1[C@H](Oc2cccc(C)c2-c2cccc(NS(=O)(=O)C3CC3)c2)O[C@H](CO)[C@H](O)[C@@H]1O"
< 1%

Returns the measured bioavailability for the input compound. Input: CC(=O)N[C@@H]1[C@H](Oc2cccc(C(F)(F)F)c2-c2cccc(NS(C)(=O)=O)c2)OC(CO)[C@H](O)[C@@H]1O (some centres unmarked)
< 1%
